Tested on: MPNST complex spheroid with HUVEC/MSC, growth, % test/control
Test: Anticancer human tumor MPNST cell line growth inhibition [Asc];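 further: compounds left on spheroids for seven days before reading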
Details: second compound 1 µM; first compound 0.00316 µM; stronger effect = lower value
Source text: Multicellular complex tumor spheroid response to apoptosis pathway targeting inhibitors Alrizomadlin, Pelcitoclax, and Dasminapant in combination with a variety of drugs and investigational agents in selected tumor cell lines […] Compounds. […] If the clinical Cmax for an agent had not been determined, the highest concentration tested was 10 microM. […]
Lab note: anything with viability, T/C below 80% is marked True; values at 80% or higher are marked False.

{"Compound": "COc1c(OCCCN2CCOCC2)ccc2c3n(c(=NC(=O)c4cnc(N)nc4)nc12)CCN3 + Cc1c(S(C)(=O)=O)c(-c2cc(F)cc(N3CCN(c4ccc(NS(=O)(=O)c5ccc(NC(CCN6CCC(C(=O)OCCCP(=O)(O)O)CC6)CSc6ccccc6)c(S(=O)(=O)C(F)(F)F)c5)cc4)CC3)c2)c(-c2ccc(Cl)cc2)n1C(C)C", "Label": "True"}
{"Compound": "NC1CCC(NC2CC2c2ccccc2)CC1 (stereo not given) + Cc1c(S(C)(=O)=O)c(-c2cc(F)cc(N3CCN(c4ccc(NS(=O)(=O)c5ccc(NC(CCN6CCC(C(=O)OCCCP(=O)(O)O)CC6)CSc6ccccc6)c(S(=O)(=O)C(F)(F)F)c5)cc4)CC3)c2)c(-c2ccc(Cl)cc2)n1C(C)C", "Label": "True"}
{"Compound": "NC1CCC(NC2CC2c2ccccc2)CC1 (stereo not given) + CNC(C)C(=O)NC1CN(S(=O)(=O)c2cccc(S(=O)(=O)N3CCC4CCC(C(=O)NC(c5ccccc5)c5ccccc5)N4C(=O)C(NC(=O)C(C)NC)C3)c2)CCC2CCC(C(=O)NC(c3ccccc3)c3ccccc3)N2C1=O", "Label": "True"}
{"Compound": "CCN1CCN(Cc2ccc(Nc3ncc(F)c(-c4cc(F)c5nc(C)n(C(C)C)c5c4)n3)nc2)CC1 + Cc1c(S(C)(=O)=O)c(-c2cc(F)cc(N3CCN(c4ccc(NS(=O)(=O)c5ccc(NC(CCN6CCC(C(=O)OCCCP(=O)(O)O)CC6)CSc6ccccc6)c(S(=O)(=O)C(F)(F)F)c5)cc4)CC3)c2)c(-c2ccc(Cl)cc2)n1C(C)C", "Label": "True"}
{"Compound": "Cn1ncnc1[C@H]1c2n[nH]c(=O)c3cc(F)cc(c23)N[C@@H]1c1ccc(F)cc1 + Cc1c(S(C)(=O)=O)c(-c2cc(F)cc(N3CCN(c4ccc(NS(=O)(=O)c5ccc(NC(CCN6CCC(C(=O)OCCCP(=O)(O)O)CC6)CSc6ccccc6)c(S(=O)(=O)C(F)(F)F)c5)cc4)CC3)c2)c(-c2ccc(Cl)cc2)n1C(C)C", "Label": "False"}

====

Test system: MPNST complex spheroid with HUVEC/MSC, growth, % test/control
Assay: Anticancer human tumor MPNST cell line growth inhibition [Asc];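 further: compounds left on spheroids for seven days before reading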
Conditions: curve of first compound; second compound 0.316 µM

{"Molecule": "NC1CCC(NC2CC2c2ccccc2)CC1 (configuration not stated) + CNC(C)C(=O)NC1CN(S(=O)(=O)c2cccc(S(=O)(=O)N3CCC4CCC(C(=O)NC(c5ccccc5)c5ccccc5)N4C(=O)C(NC(=O)C(C)NC)C3)c2)CCC2CCC(C(=O)NC(c3ccccc3)c3ccccc3)N2C1=O", "Test target": "MPNST complex spheroid with HUVEC/MSC, growth, % test/control", "Limit operator": "=", "IC50 / nM": 95.3}
{"Molecule": "O=C(c1ccc(F)c(F)c1Nc1ccc(I)cc1F)N1CC(O)([C@@H]2CCCCN2)C1 + Cc1c(S(C)(=O)=O)c(-c2cc(F)cc(N3CCN(c4ccc(NS(=O)(=O)c5ccc(NC(CCN6CCC(C(=O)OCCCP(=O)(O)O)CC6)CSc6ccccc6)c(S(=O)(=O)C(F)(F)F)c5)cc4)CC3)c2)c(-c2ccc(Cl)cc2)n1C(C)C", "Test target": "MPNST complex spheroid with HUVEC/MSC, growth, % test/control", "Limit operator": "=", "IC50 / nM": 336}
{"Molecule": "CCN1CCN(Cc2ccc(Nc3ncc(F)c(-c4cc(F)c5nc(C)n(C(C)C)c5c4)n3)nc2)CC1 + CNC(C)C(=O)NC1CN(S(=O)(=O)c2cccc(S(=O)(=O)N3CCC4CCC(C(=O)NC(c5ccccc5)c5ccccc5)N4C(=O)C(NC(=O)C(C)NC)C3)c2)CCC2CCC(C(=O)NC(c3ccccc3)c3ccccc3)N2C1=O", "Test target": "MPNST complex spheroid with HUVEC/MSC, growth, % test/control", "Limit operator": ">", "IC50 / nM": 1000}
{"Molecule": "Cc1nc(N2CCC3(CC2)COC(C)C3N)c(CO)nc1Sc1ccnc(N)c1Cl (configuration not stated) + Cc1c(S(C)(=O)=O)c(-c2cc(F)cc(N3CCN(c4ccc(NS(=O)(=O)c5ccc(NC(CCN6CCC(C(=O)OCCCP(=O)(O)O)CC6)CSc6ccccc6)c(S(=O)(=O)C(F)(F)F)c5)cc4)CC3)c2)c(-c2ccc(Cl)cc2)n1C(C)C", "Test target": "MPNST complex spheroid with HUVEC/MSC, growth, % test/control", "Limit operator": ">", "IC50 / nM": 3000}
{"Molecule": "COc1c(OCCCN2CCOCC2)ccc2c3n(c(=NC(=O)c4cnc(N)nc4)nc12)CCN3 + Cc1c(S(C)(=O)=O)c(-c2cc(F)cc(N3CCN(c4ccc(NS(=O)(=O)c5ccc(NC(CCN6CCC(C(=O)OCCCP(=O)(O)O)CC6)CSc6ccccc6)c(S(=O)(=O)C(F)(F)F)c5)cc4)CC3)c2)c(-c2ccc(Cl)cc2)n1C(C)C", "Test target": "MPNST complex spheroid with HUVEC/MSC, growth, % test/control", "Limit operator": "=", "IC50 / nM": 50.3}
{"Molecule": "Cc1nc(N2CCC3(CC2)COC(C)C3N)c(CO)nc1Sc1ccnc(N)c1Cl (configuration not stated) + CNC(C)C(=O)NC1CN(S(=O)(=O)c2cccc(S(=O)(=O)N3CCC4CCC(C(=O)NC(c5ccccc5)c5ccccc5)N4C(=O)C(NC(=O)C(C)NC)C3)c2)CCC2CCC(C(=O)NC(c3ccccc3)c3ccccc3)N2C1=O", "Test target": "MPNST complex spheroid with HUVEC/MSC, growth, % test/control", "Limit operator": "=", "IC50 / nM": 647}
{"Molecule": "NC(=O)C(=Cn1cnc(-c2cc(C(F)(F)F)cc(C(F)(F)F)c2)n1)c1cncnc1 + CNC(C)C(=O)NC1CN(S(=O)(=O)c2cccc(S(=O)(=O)N3CCC4CCC(C(=O)NC(c5ccccc5)c5ccccc5)N4C(=O)C(NC(=O)C(C)NC)C3)c2)CCC2CCC(C(=O)NC(c3ccccc3)c3ccccc3)N2C1=O", "Test target": "MPNST complex spheroid with HUVEC/MSC, growth, % test/control", "Limit operator": "=", "IC50 / nM": 18.1}

====

The following compounds are listed with their measured viability, T/C values.
Tested on: MPNST complex spheroid with HUVEC/MSC, growth, % test/control
Experiment: Anticancer human tumor MPNST cell line growth inhibition [Asc];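 further: compounds left on spheroids for seven days before reading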
Settings: second compound 0.1 µM; first compound 10 µM; stronger effect = lower value

{"Compound": "O=C(c1cc(Cc2n[nH]c(=O)c3ccccc23)ccc1F)N1CCN(C(=O)C2CC2)CC1 + CNC(C)C(=O)NC1CN(S(=O)(=O)c2cccc(S(=O)(=O)N3CCC4CCC(C(=O)NC(c5ccccc5)c5ccccc5)N4C(=O)C(NC(=O)C(C)NC)C3)c2)CCC2CCC(C(=O)NC(c3ccccc3)c3ccccc3)N2C1=O", "Test target": "MPNST complex spheroid with HUVEC/MSC, growth, % test/control", "viability, T/C, %": 38.8}
{"Compound": "C#Cc1c(F)ccc2cc(O)cc(-c3ncc4c(N5CC6CCC(C5)N6)nc(OCC56CCCN5CC(F)C6)nc4c3F)c12 (stereo not given) + Cc1c(S(C)(=O)=O)c(-c2cc(F)cc(N3CCN(c4ccc(NS(=O)(=O)c5ccc(NC(CCN6CCC(C(=O)OCCCP(=O)(O)O)CC6)CSc6ccccc6)c(S(=O)(=O)C(F)(F)F)c5)cc4)CC3)c2)c(-c2ccc(Cl)cc2)n1C(C)C", "Test target": "MPNST complex spheroid with HUVEC/MSC, growth, % test/control", "viability, T/C, %": 101}
{"Compound": "C#Cc1c(F)ccc2cc(O)cc(-c3ncc4c(N5CC6CCC(C5)N6)nc(OCC56CCCN5CC(F)C6)nc4c3F)c12 (stereo not given) + CNC(C)C(=O)NC1CN(S(=O)(=O)c2cccc(S(=O)(=O)N3CCC4CCC(C(=O)NC(c5ccccc5)c5ccccc5)N4C(=O)C(NC(=O)C(C)NC)C3)c2)CCC2CCC(C(=O)NC(c3ccccc3)c3ccccc3)N2C1=O", "Test target": "MPNST complex spheroid with HUVEC/MSC, growth, % test/control", "viability, T/C, %": 53.1}
{"Compound": "C=CC(=O)N1CCN(c2nc(=O)n(-c3c(C)ccnc3C(C)C)c3nc(-c4c(O)cccc4F)c(F)cc23)C(C)C1 (stereo not given) + CNC(C)C(=O)NC1CN(S(=O)(=O)c2cccc(S(=O)(=O)N3CCC4CCC(C(=O)NC(c5ccccc5)c5ccccc5)N4C(=O)C(NC(=O)C(C)NC)C3)c2)CCC2CCC(C(=O)NC(c3ccccc3)c3ccccc3)N2C1=O", "Test target": "MPNST complex spheroid with HUVEC/MSC, growth, % test/control", "viability, T/C, %": 161}
{"Compound": "O=C(c1cc(Cc2n[nH]c(=O)c3ccccc23)ccc1F)N1CCN(C(=O)C2CC2)CC1 + Cc1c(S(C)(=O)=O)c(-c2cc(F)cc(N3CCN(c4ccc(NS(=O)(=O)c5ccc(NC(CCN6CCC(C(=O)OCCCP(=O)(O)O)CC6)CSc6ccccc6)c(S(=O)(=O)C(F)(F)F)c5)cc4)CC3)c2)c(-c2ccc(Cl)cc2)n1C(C)C", "Test target": "MPNST complex spheroid with HUVEC/MSC, growth, % test/control", "viability, T/C, %": 64.5}

Attribution: PubChem BioAssay AID1963442
